# Setup Conditions: mouse, single 25 mg/kg po dose
Reported Endpoint: T>MIC

Query block: Request the reported T>MIC associated with "O=[N+]([O-])c1ccc(/C=N/Nc2nc(Nc3ccccc3)nc(N3CCOCC3)n2)o1"
Result block: 8 to 24 h

Query block: Request the reported T>MIC associated with "O=[N+]([O-])c1ccc(/C=N/Nc2nc(N3CCC3)nc(N3CCOCC3)n2)o1"
Result block: 3 to 5 h

Query block: Request the reported T>MIC associated with "O=[N+]([O-])c1ccc(/C=N/Nc2nc(Nc3ccccc3)nc(Nc3ccccc3)n2)o1"
Result block: 5.0 h

Query block: Request the reported T>MIC associated with "CC1(Nc2nc(N/N=C/c3ccc([N+](=O)[O-])o3)nc(N3CCOCC3)n2)CC1"
Result block: 1 to 3 h
